- Test system: UACC-62
- assayNotes: NCI tumour cell line growth inhibition, 48 h
The source made the active and inactive calls. No stated cut-off is given here; in the data, active = GI50 up to about 1.1 µM and inactive = higher.
Outcomes you can answer with include only these: 1 (yes) (active), 0 (no) (inactive)

Short answer needed: outcome of this test for FC(F)(F)c1nc(-c2ccccc2)oc1Sc1oc(-c2ccccc2)nc1C(F)(F)F ?
0 (no)

Answer briefly: the call reported for N#Cc1ccc(C(=O)/C=C/c2ccc(O)c(O)c2)cc1 in this assay.
0 (no)

Name the outcome recorded for CSc1nc(C)c(CCOC(C)=O)c(Cl)n1 in the assay.
0 (no)

Just curious, what result did O=C1/C(=C\c2ccc([N+](=O)[O-])cc2)Sc2scc(-c3ccc(O)c(O)c3)[n+]21 get here?
0 (no)

Please share the test call associated with CO/C=C(/C(=O)OC)c1ccccc1Oc1c(F)c(F)c(F)c(F)c1F .
0 (no)

Test call, this molecule: C/C1=C/C[C@@H](/C(C)=C/c2csc(C)n2)OC(=O)C[C@H](O)C(C)(C)C(=O)[C@H](C)[C@@H](O)[C@@H](C)CCC1
1 (yes)

Just curious, what result did COC(=O)Cc1cccc2c(=O)c(S(=O)(=O)NC(=O)Nc3ccc(Cl)cc3)c(-c3ccccc3)oc12 get here?
0 (no)

Tell me the assay call for CC1(C)O[C@H]2OC(CO)C(N=[N+]=[N-])[C@H]2O1 (stereo partly specified) please.
0 (no)

Which outcome did this test record for the molecule CC(=O)N1CN2C(=O)CCC2c2cc(C)ccc21 (stereo unspecified) ?
0 (no)

Query: recorded result category for COc1cc([C@@H]2c3cc4c(cc3C[C@@H]3COC(=O)C32)OCO4)cc(OC)c1O (stereo partly specified) in this test
1 (yes)

Give the logged outcome of this assay for the following molecule: C#CC(O)Cc1ccc(OC)c2occc12 (stereo unspecified)
0 (no)

Please let me know the test result on file for COC12C=CC(CC1)C(C)(C)C2=O (stereo unspecified) .
0 (no)

Dear all, I need the recorded test outcome for O=C(CC(Cl)=C(Cl)Cl)c1ccccc1 , thank you.
0 (no)

Field: outcome | Entry: O=S(=O)(Nc1ccc2ccc3cccc4ccc1c2c34)c1ccccc1
0 (no)

Check the results log: what was the call for O=C(CNC(=O)c1ccccc1)Oc1c(Cl)c(Cl)c(Cl)c(Cl)c1Cl ?
0 (no)

Which result was noted for this molecule in the test: CSC(Cc1ccc2c(c1)Sc1ccccc1O2)=[N+]1CCOCC1
0 (no)

# fetch the recorded call for N#Cc1c(O)nc2nn3c4ccc5ccccc5c4nnc3c2c1-c1ccc(Cl)cc1 here
0 (no)

Given O=C(N/N=C/c1ccc([N+](=O)[O-])o1)c1ccc(C(=O)N/N=C/c2ccc([N+](=O)[O-])o2)cc1 , state the outcome it received in this test.
0 (no)

Lab log entry: S=C1Nc2cnc3ccccc3c2SC1c1ccccc1 (stereo unspecified) — outcome as called in the assay?
0 (no)

Give the logged outcome of this assay for the following molecule: N#CC(N)c1ccc(OCCCCCCCCCCOc2ccc(C(N)C#N)cc2)cc1 (stereo unspecified)
0 (no)

Given N=c1c2c(ncn1N)Oc1c(c(-c3ccccc3)nn1-c1ccccc1)C2c1ccc(Cl)cc1 (stereo unspecified) , state the outcome it received in this test.
0 (no)

----------
- Test system: HT-29
- assayNotes: NCI tumour cell line growth inhibition, 48 h
Active and inactive are the calls of the source. No stated cut-off is given here; in the data, active = GI50 up to about 1.1 µM and inactive = higher.
testReadout: GI50

# GI50 of CN(C)CCCN1c2ccccc2C(C)(C)c2ccccc21 [DIMETACRINE] = 11.8 µM (inactive)

Recorded GI50 (compound O=C1c2cc3c(cc2CC12Cc1ccccc1C2)CCC3 ): 21.5 µM (inactive)

# compound CNc1ncnc2c1nnn2C ; its GI50 = > 100 µM (inactive)

compound CCCC(=O)Nc1cn(COC)c(C(=O)N2C[C@H]3C[C@@]34C2=CC(=O)c2[nH]cc(C)c24)n1 , GI50 observed: 7.35 µM (inactive)

The compound listed as O=c1cc(CO)oc(C(O)c2ccccc2)c1O (centres undefined) has a reported GI50 of > 100 µM (inactive)

// GI50 value for Nc1ccccc1.O=P(O)(O)c1ccccc1 : > 100 µM (inactive)

Form field GI50, entry COc1ccc2c(c1)CCCC(Br)C2=O (centres undefined) : 5.31 µM (inactive)

# GI50 (compound: C#CC(O)Cc1ccc(OC)c2occc12 (centres undefined) ) is > 100 µM (inactive)

Looking up CSc1nc(NC(C)C)c2c(n1)Sc1nc3ccccc3n1C2O (centres undefined) , I found its GI50 recorded as 3.09 µM (inactive)

GI50 for O=C(O)C(Cc1ccc2c(c1)CCC2)(Cc1ccc2c(c1)CCC2)C(=O)O is > 100 µM (inactive)

Entry under test: O=c1cccccc1NCCCCCCNc1cccccc1=O . Its GI50 was > 100 µM (inactive)

Form field GI50, entry O=C(/C=C/c1ccc2c(c1)OCO2)c1ccc(O)cc1 : 15.4 µM (inactive)

Notebook: COc1ccc(NCC(=O)Nn2c(C)nc3ccc(S(=O)(=O)Nc4ccc(OC)cc4)cc3c2=O)cc1 , GI50 read as > 100 µM (inactive)

Measured GI50, Cn1ccc(C(=O)NCCOCCNC(=O)c2ccn(C)c(=O)c2O)c(O)c1=O : > 100 µM (inactive)

Lab note: Cc1ccc2nc(-c3ccccc3)cc(=O)n2c1 gave GI50 of > 100 µM (inactive)

Lab note: measured GI50 of CN1CCN(Cc2ccc(C(=S)Nc3ccccc3)s2)CC1 was 19.6 µM (inactive)

// NCC1OC(n2cnc3c(N)ncnc32)CC1O (centres undefined) : GI50 value = > 100 µM (inactive)

So for CC1=C(C(=O)NCCc2ccccc2)CC(C(=O)NCCc2ccccc2)=C(C)N1 , the logged GI50 turned out to be 61.1 µM (inactive)

The recorded GI50 for entry CCCCCC1C2C(=O)NC(=O)C1C(=O)NC2=O (centres undefined) equals > 100 µM (inactive)

Short answer for COc1cc2c(cc1O)-c1c(cnn1-c1ccc([N+](=O)[O-])cc1)CCC2 : GI50 was 16.4 µM (inactive)

get_value(item= CCOC(=O)c1cc2cc3c4c(c2oc1=O)CCCN4CCC3 , readout=GI50) returns 31.8 µM (inactive)

// recorded GI50 for CCCCCC/C=C/C#CCCCCCCCC(=O)O : > 100 µM (inactive)

The compound identified as Cc1[nH]c2ncn(N)c(=N)c2c1Cc1ccccc1 registered its GI50 at 67.9 µM (inactive)

Short answer for CC1CCCCCC(=O)c2c(O)cc(O)cc2CC(=O)O1 (centres undefined) [CURVULARIN] : GI50 was > 100 µM (inactive)
